target: AMP-activated protein kinase, AMPK (Homo sapiens) (UniProt P54646+O43741+P54619+Q9UGJ0+Q9Y478+Q13131+Q9UGI9); assay: Activation of AMPK in human Huh-7 cells assessed as increase in AMPK phosphorylation at Thr172 residue at 10 uM measured after 12 hrs by Western blot analysis; type: cell-based; details: filed as activator
The source made the active and inactive calls. The rule behind the calls is not given here.
quantity-name: Activity

CC1(C)CC[C@]2(C(=O)O)CC[C@]3(C)C(=CC[C@@H]4[C@@]5(C)C[C@@H](O)[C@H](O)C(C)(C)[C@@H]5CC[C@]43C)[C@@H]2C1
Active
C[C@H]1[C@H](C)CC[C@]2(C(=O)O[C@@H]3O[C@H](CO[C@@H]4O[C@H](CO)[C@@H](O[C@@H]5O[C@@H](C)[C@H](O)[C@@H](O)[C@H]5O)[C@H](O)[C@H]4O)[C@@H](O)[C@H](O)[C@H]3O)CC[C@]3(C)C(=CC[C@@H]4[C@@]5(C)C[C@@H](O)[C@H](O)[C@@](C)(CO)[C@@H]5CC[C@]43C)[C@H]12
Active

---

test: Metabolic stability in human liver microsomes assessed as half life in presence of NADPH by LC-MS analysis; type: ADME, Microsome
quantity-name: half-life (min)
Only the number, expressed in min, is required.

Qu. Please indicate half-life recorded for `CC1(C)CC[C@]2(C(=O)O[C@@H]3OC[C@@H](O)[C@H](O)[C@H]3O)CC[C@]3(C)C(=C2C1)CC[C@@H]1[C@@]2(C)CC[C@H](O[C@@H]4OC[C@H](O)[C@H](O)[C@H]4O)C(C)(C)[C@@H]2CC[C@]13C`
Ans. 45

Qu. Please indicate half-life recorded for O=C(c1ccc(F)cc1)C1CCN(CCn2c(=O)[nH]c3ccccc3c2=O)CC1 [KETANSERIN]
Ans. 42.4

---

Would you kindly list bioavailability for each of these compounds?
assay: Bioavailability in BALB/c mouse at 10 mg/kg, po by LC/MS-MS analysis; format: ADME, organism-based; conditions: in vivo
Only the number, expressed in %, is required.

Qu. Please indicate bioavailability recorded for `CC1(C)CC[C@]2(C(=O)O)CC[C@]3(C)C(=C2C1)CC[C@@H]1[C@@]2(C)CC[C@H](O[C@@H]4OC[C@H](O)[C@H](O)[C@H]4O)C(C)(C)[C@@H]2CC[C@]13C`
Ans. 24.7

Qu. Please indicate bioavailability recorded for `CC1(C)CC[C@]2(C(=O)O[C@@H]3OC[C@@H](O)[C@H](O)[C@H]3O)CC[C@]3(C)C(=C2C1)CC[C@@H]1[C@@]2(C)CC[C@H](O[C@@H]4OC[C@H](O)[C@H](O)[C@H]4O)C(C)(C)[C@@H]2CC[C@]13C`
Ans. 18.6

Qu. Please indicate bioavailability recorded for `CC1(C)CC[C@]2(C(=O)O)CC[C@]3(C)C(=C2C1)CC[C@@H]1[C@@]2(C)CC[C@H](O[C@@H]4OC[C@H](O)[C@H](O)[C@H]4O[C@@H]4OC[C@@H](O)[C@H](O)[C@H]4O)C(C)(C)[C@@H]2CC[C@]13C`
Ans. 1.13

---

biological target: AMP-activated protein kinase, AMPK (Homo sapiens) (UniProt P54646+O43741+P54619+Q9UGJ0+Q9Y478+Q13131+Q9UGI9); test: Activation of AMPK in human Huh-7 cells assessed as increase in AMPK phosphorylation at Thr172 residue at 10 uM measured after 12 hrs by Western blot analysis; assay type: cell-based; settings: filed as activator
Calls of active or inactive are those of the source. No cut-off for these calls is given here.
quantity-name: Activity

Example entries begin here.
C[C@H]1[C@H](C)CC[C@]2(C(=O)O)CC[C@]3(C)C(=CC[C@@H]4[C@@]5(C)C[C@@H](O)[C@H](O)[C@@](C)(CO)[C@@H]5[C@H](O)C[C@]43C)[C@H]12
Active
C[C@H]1[C@H](C)CC[C@]2(C(=O)O[C@@H]3O[C@H](CO[C@@H]4O[C@H](CO)[C@@H](O[C@@H]5O[C@@H](C)[C@H](O)[C@@H](O)[C@H]5O)[C@H](O)[C@H]4O)[C@@H](O)[C@H](O)[C@H]3O)CC[C@]3(C)C(=CC[C@@H]4[C@@]5(C)C[C@@H](O)[C@H](O)[C@@](C)(CO)[C@@H]5[C@H](O)C[C@]43C)[C@H]12
Active
C[C@H]1[C@H](C)CC[C@]2(C(=O)O)CC[C@]3(C)C(=CC[C@@H]4[C@@]5(C)C[C@@H](O)[C@H](O)[C@@](C)(CO)[C@@H]5CC[C@]43C)[C@H]12
Active
CC1(C)CC[C@]2(C(=O)O)CC[C@]3(C)C(=C2C1)CC[C@@H]1[C@@]2(C)CC[C@H](O)C(C)(C)[C@@H]2CC[C@]13C
Active
C[C@@H]1CC[C@]2(C(=O)O[C@@H]3O[C@H](CO)[C@@H](O)[C@H](O)[C@H]3O)CC[C@]3(C)C(=CC[C@@H]4[C@@]5(C)CC[C@H](O[C@@H]6OC[C@H](O)[C@H](O)[C@H]6O)C(C)(C)[C@@H]5CC[C@]43C)[C@@H]2[C@]1(C)O
Active

Qu. Please indicate Activity recorded for `CC1(C)CC[C@]2(C(=O)O[C@@H]3O[C@H](CO)[C@@H](O)[C@H](O)[C@H]3O)CC[C@]3(C)C(=CC[C@@H]4[C@@]5(C)CC[C@H](O[C@@H]6O[C@H](C(=O)O)[C@@H](O)[C@H](O)[C@H]6O[C@@H]6O[C@H](CO)[C@@H](O)[C@H](O)[C@H]6O)C(C)(C)[C@@H]5CC[C@]43C)[C@@H]2C1`
Ans. Active

Qu. Please indicate Activity recorded for `C[C@@H]1CC[C@]2(C(=O)O)CC[C@]3(C)C(=CC[C@@H]4[C@@]5(C)CC[C@H](O[C@@H]6OC[C@H](O)[C@H](O)[C@H]6O)C(C)(C)[C@@H]5CC[C@]43C)[C@@H]2[C@]1(C)O`
Ans. Active

Qu. Please indicate Activity recorded for `C[C@@H]1O[C@@H](O[C@H]2[C@H](O[C@H]3CC[C@@]4(C)[C@@H](CC[C@]5(C)[C@@H]4CC=C4[C@@H]6CC(C)(C)CC[C@]6(C(=O)O[C@@H]6O[C@H](CO[C@@H]7O[C@H](CO)[C@@H](O[C@@H]8O[C@@H](C)[C@H](O)[C@@H](O)[C@H]8O)[C@H](O)[C@H]7O)[C@@H](O)[C@H](O)[C@H]6O)CC[C@]45C)[C@]3(C)CO)OC[C@H](O)[C@@H]2O)[C@H](O)[C@H](O)[C@H]1O`
Ans. Active

---

experiment: Tmax in BALB/c mouse at 2 mg/kg, iv by LC/MS-MS analysis; assay type: ADME, organism-based; details: in vivo
quantity-name: Tmax (min)
Only the number, expressed in min, is required.

Qu. Please indicate Tmax recorded for `CC1(C)CC[C@]2(C(=O)O)CC[C@]3(C)C(=C2C1)CC[C@@H]1[C@@]2(C)CC[C@H](O[C@@H]4OC[C@H](O)[C@H](O)[C@H]4O[C@@H]4OC[C@@H](O)[C@H](O)[C@H]4O)C(C)(C)[C@@H]2CC[C@]13C`
Ans. 4.8

Qu. Please indicate Tmax recorded for `CC1(C)CC[C@]2(C(=O)O[C@@H]3OC[C@@H](O)[C@H](O)[C@H]3O)CC[C@]3(C)C(=C2C1)CC[C@@H]1[C@@]2(C)CC[C@H](O[C@@H]4OC[C@H](O)[C@H](O)[C@H]4O)C(C)(C)[C@@H]2CC[C@]13C`
Ans. 4.8

Qu. Please indicate Tmax recorded for `CC1(C)CC[C@]2(C(=O)O)CC[C@]3(C)C(=C2C1)CC[C@@H]1[C@@]2(C)CC[C@H](O[C@@H]4OC[C@H](O)[C@H](O)[C@H]4O)C(C)(C)[C@@H]2CC[C@]13C`
Ans. 4.8

---

experiment: Cmax in BALB/c mouse at 10 mg/kg, po by LC/MS-MS analysis; assay type: ADME, organism-based; set-up: route oral, dose 10 mg/kg; settings: in vivo
quantity-name: Cmax (ng/mL)
Only the number, expressed in ng/mL, is required.

Qu. Please indicate Cmax recorded for `CC1(C)CC[C@]2(C(=O)O[C@@H]3OC[C@@H](O)[C@H](O)[C@H]3O)CC[C@]3(C)C(=C2C1)CC[C@@H]1[C@@]2(C)CC[C@H](O[C@@H]4OC[C@H](O)[C@H](O)[C@H]4O)C(C)(C)[C@@H]2CC[C@]13C`
Ans. 728

Qu. Please indicate Cmax recorded for `CC1(C)CC[C@]2(C(=O)O)CC[C@]3(C)C(=C2C1)CC[C@@H]1[C@@]2(C)CC[C@H](O[C@@H]4OC[C@H](O)[C@H](O)[C@H]4O)C(C)(C)[C@@H]2CC[C@]13C`
Ans. 1840

Qu. Please indicate Cmax recorded for `CC1(C)CC[C@]2(C(=O)O)CC[C@]3(C)C(=C2C1)CC[C@@H]1[C@@]2(C)CC[C@H](O[C@@H]4OC[C@H](O)[C@H](O)[C@H]4O[C@@H]4OC[C@@H](O)[C@H](O)[C@H]4O)C(C)(C)[C@@H]2CC[C@]13C`
Ans. 54.2
